Numbers sourced from ChEMBL document CHEMBL3739299.

- subject_of_test: CAAX prenyl protease 2 (Homo sapiens, UniProt Q9Y256)
- Sequence (Q9Y256 whole entry): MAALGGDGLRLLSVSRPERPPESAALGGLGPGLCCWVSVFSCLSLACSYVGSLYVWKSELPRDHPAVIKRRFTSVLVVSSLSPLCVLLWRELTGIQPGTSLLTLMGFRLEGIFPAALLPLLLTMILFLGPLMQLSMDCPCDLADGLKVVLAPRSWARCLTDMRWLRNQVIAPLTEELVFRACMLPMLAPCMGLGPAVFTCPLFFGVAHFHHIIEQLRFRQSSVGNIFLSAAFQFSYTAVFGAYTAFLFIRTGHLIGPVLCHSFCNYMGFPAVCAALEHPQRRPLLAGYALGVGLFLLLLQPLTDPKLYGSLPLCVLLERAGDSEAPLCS
measured_quantity: pIC50
# pIC50: negative log10 of molar concentration; output just the value

O=C(O)c1ccc(NC(c2ccccc2)c2ccc3cccnc3c2O)cc1 (centres undefined) : 5.16
O=C(O)c1ccc(NC(c2cccnc2)c2ccc3cccnc3c2O)cc1 (centres undefined) : 4.85
O=C(O)c1ccc(NC(c2ccccc2)c2ccc3ccccc3c2O)cc1 (centres undefined) : 5.38
O=C(O)c1ccc(NC(c2ccc(Br)cc2)c2ccc3ccccc3c2O)cc1 (centres undefined) : 5.41
CC(C)(C)c1ccc(NC(c2ccccc2)c2ccc3ccccc3c2O)cc1 (centres undefined) : 5.30
O=C(O)c1ccc(NC(c2ccc(F)cc2)c2ccc3cccnc3c2O)cc1 (centres undefined) : 5.09
O=C(O)c1ccc(NC(c2ccccn2)c2ccc3cccnc3c2O)cc1 (centres undefined) : 4.42
Cc1ccc(C(Nc2ccc(C(=O)O)cc2)c2ccc3cccnc3c2O)cc1 (centres undefined) : 5.15

Shift focus to the following entry.
Exercise: Quick check: pIC50 of O=C(O)c1ccc(NC(c2ccc(Br)cc2)c2ccc3cccnc3c2O)cc1 (centres undefined) ?
Solution: 5.17
